assay: qHTS assay for small molecules that induce genotoxicity in human embryonic kidney cells expressing luciferase-tagged ATAD5 (AID 651632); settings: HEK293T ATAD5-luciferase induction, 16 h; series mostly up to 83.3 µM; note: % is set by controls: 0 for no effect and ±100 for the full control effect; nearly all actives have a fitted effect of over 15% in size
Records with an inconclusive call do not appear. Activity calls are given as the source filed them. Calls come from the whole dose curve; as a rule, active = well fitted activation curve with a large enough effect in the repeat runs; inconclusive = weak or mixed curves; inactive = no such curve, though single readings can be large or run the other way.
Test Readout: outcome

Worked cases, outcome given:
# Compound, outcome
data = [
    ("CC(Cl)(Cl)C(=O)O", "inactive"),
    ("CCn1cc[n+](C)c1C", "inactive"),
    ("O=P1(N(CCCl)CCCl)NCCCO1 (stereo not drawn)", "inactive"),
    ("C[C@]12CCC(=O)C=C1CC[C@@H]1[C@@H]2CC[C@]2(C)C(=O)CC[C@@H]12", "inactive"),
    ("O=C(O)c1nc(Cl)ccc1Cl", "inactive"),
]

As a next step, examine the compound that follows.
Data request: Entry CCCCCCn1cc[n+](C)c1 : reported outcome = ?
Data returned: inactive

* * *

Assay: qHTS assay to identify small molecule agonists of the estrogen related receptor (ERR) signaling pathway from Tox21 library (AID 1224849); note: % is set by controls: 0 for no effect and ±100 for the full control effect; nearly all actives have a fitted effect of over 15% in size
Conditions: ERR reporter cell line, ONE-Glo luciferase, 18 h; at 42.5 µM (top of the series)
Procedure: National Center for Advancing Translational Sciences [NCATS] NIH Chemical Genomics Center [NCGC] U.S. Environmental Protection Agency [EPA] National Institutes of Environmental Health Sciences [NIEHS] National Toxicology Program [NTP] […] The ERR cells were dispensed at 2,000 cells/5 ul/well in 1536-well white plates using a Multidrop dispenser. […] After 30-minute incubation at room temperature, the luminescence intensity in the plates was measured using a ViewLux plate reader.
Measured activity change, positive = activation accompanies every entry in the list below.
Please give a number only; it is taken to be in %.

Worked cases, activity change, positive = activation given:
# Compound, activity change, positive = activation [%]
rows = [
    ("O=P1(N(CCCl)CCCl)NCCCO1 (centres undefined)", -7.16),
    ("OCCOc1ccccc1", 7.59),
    ("CCNc1nc(Cl)nc(NCC)n1", -12),
]

As a next step, examine the compound that follows.
Data request: Entry COP(=O)(OC)C(O)C(Cl)(Cl)Cl (centres undefined) : reported activity change, positive = activation = ?
Data returned: 0.23

* * *

Assay: qHTS assay to identify small molecule agonists of the retinoic acid receptor (RAR) signaling pathway (AID 1159553); note: % is set by controls: 0 for no effect and ±100 for the full control effect
Settings: C3RL4 RARE luciferase reporter, agonist, 6 h; series mostly up to 73.3 µM
Text: National Center for Advancing Translational Sciences [NCATS] NIH Chemical Genomics Center [NCGC] U.S. Environmental Protection Agency [EPA] National Institutes of Environmental Health Sciences [NIEHS] National Toxicology Program [NTP] […]
Records with an inconclusive call do not appear. Activity calls are given as the source filed them. The call rests on the fitted dose curve; in most records, active means well fitted activation curve with a large enough effect in the repeat runs; inconclusive means weak or mixed curves, or effect the other way; inactive means no such curve, though single readings can be large or run the other way.
Hello, when you answer, please use one of the following outcomes: active, inactive

# Compound, Label
measured = [
    ("C1CCC(NC2CCCCC2)CC1", "inactive"),
    ("O=C(O)C(Cl)(Cl)Cl", "inactive"),
    ("O=C(O)c1ccccc1O", "inactive"),
    ("COP(=O)(OC)C(O)C(Cl)(Cl)Cl (stereo not given)", "inactive"),
    ("CCCCCCCCCCCC(=O)O", "inactive"),
    ("CCCC[n+]1ccccc1", "inactive"),
    ("O=[N+]([O-])c1ccccc1O", "inactive"),
    ("O=[N+]([O-])O", "inactive"),
]

Data request: What did the test return for CC[n+]1ccccc1 ?
Data returned: inactive

* * *

Assay: qHTS assay to identify small molecule agonists of the hypoxia (HIF-1) signaling pathway - cell viability counter screen (AID 1224844); note: % is set by controls: 0 for no effect and ±100 for the full control effect; nearly all actives have a fitted effect of over 50% in size
Settings: HRE-bla ME-180 viability, CellTiter-Glo luminescence, 17 h; series mostly up to 76.8 µM
Description: National Center for Advancing Translational Sciences [NCATS] NIH Chemical Genomics Center [NCGC] U.S. Environmental Protection Agency [EPA] National Institutes of Environmental Health Sciences [NIEHS] National Toxicology Program [NTP] U.S. Food and Drug Administration [FDA] Hypoxia-inducible factor-1 (HIF-1) is the major hypoxia-regulated transcription factor that controls cellular responses to low oxygen concentration. […]
Inconclusive results are not listed. The source made the active and inactive calls. The call rests on the fitted dose curve.

# Compound, outcome
rows = [
    ("CCCCn1cc[n+](C)c1", "inactive"),
    ("CC(=O)O", "inactive"),
    ("O=P1(N(CCCl)CCCl)NCCCO1 (stereo not drawn)", "inactive"),
]

* * *

experiment: qHTS assay to identify small molecule antagonists of the thyroid receptor (TR) signaling pathway - cell viability counter screen (AID 743064); conditions: GH3.TRE-Luc viability, CellTiter-Fluor, 24 h; series mostly up to 70.3 µM; note: nearly all actives have a fitted effect of over 50% in size
Inconclusive results are not listed. The source made the active and inactive calls. The call rests on the fitted dose curve; in most records, active means well fitted cell-killing curve with a large enough effect in the repeat runs; inconclusive means weak or mixed curves, or effect the other way; inactive means no such curve, though single readings can be large or run the other way.
Hello, when you answer, please use one of the following outcomes: T = active, F = inactive

# Molecule, Label
rows = [
    ("O=C(O)COc1ccc(Cl)cc1Cl", "F"),
    ("Nc1ccc(Cl)cc1", "F"),
    ("Oc1ccccc1-c1ccccc1", "F"),
    ("COP(=O)(OC)C(O)C(Cl)(Cl)Cl (stereo not given)", "F"),
]

Data request: What did the test return for O=C(O)C(Cl)(Cl)Cl ?
Data returned: F

Data request: What did the test return for CC(Cl)(Cl)C(=O)O ?
Data returned: F

Data request: What did the test return for CCCC[n+]1ccccc1 ?
Data returned: F

Data request: What did the test return for O=c1nc(O)n(Cl)c(=O)n1Cl ?
Data returned: F

Data request: What did the test return for C[N+](C)(C)Cc1ccccc1 ?
Data returned: F

Data request: What did the test return for CCCCn1cc[n+](C)c1 ?
Data returned: F

Data request: What did the test return for OCCOc1ccccc1 ?
Data returned: F

Data request: What did the test return for O=P1(N(CCCl)CCCl)NCCCO1 (stereo not given) ?
Data returned: F

Data request: What did the test return for CN(C)[C@@H]1C(=O)C(C(N)=O)=C(O)[C@@]2(O)C(=O)C3=C(O)c4c(O)cccc4[C@@](C)(O)[C@H]3[C@H](O)[C@@H]12 ?
Data returned: F

Data request: What did the test return for N#CS ?
Data returned: F

Data request: What did the test return for O=C(O)CCl ?
Data returned: F

Data request: What did the test return for CCCCCCCCCCCCn1cc[n+](C)c1 ?
Data returned: T

Data request: What did the test return for CNC ?
Data returned: F

Data request: What did the test return for O=C(O)C(Cl)Cl ?
Data returned: F

Data request: What did the test return for Nc1ccc(-c2ccc(N)cc2)cc1 ?
Data returned: F

Data request: What did the test return for C=CCOC(Cn1ccnc1)c1ccc(Cl)cc1Cl (stereo not given) ?
Data returned: T

Data request: What did the test return for CC[N+]1(C)CCCC1 ?
Data returned: F

Data request: What did the test return for CCC[N+]1(C)CCCC1 ?
Data returned: F

Data request: What did the test return for CCC[N+]1(C)CCCCC1 ?
Data returned: F

Data request: What did the test return for Cc1cc(Cl)ccc1N ?
Data returned: F

Data request: What did the test return for CCCCCC[n+]1ccccc1 ?
Data returned: F

Data request: What did the test return for Nc1ccccc1 ?
Data returned: F

Data request: What did the test return for CCCC[n+]1ccccc1C ?
Data returned: F

* * *

experiment: Human pregnane X receptor (PXR) small molecule agonists, qHTS cell viability counter screen (AID 1346977); conditions: PXR-Luc HepG2 viability, CellTiter-Fluor, 24 h; series mostly up to 92.4 µM; note: nearly all actives have a fitted effect of over 50% in size
Records with an inconclusive call do not appear. Calls of active or inactive are those of the source. The call rests on the fitted dose curve; in most records, active means well fitted cell-killing curve with a large enough effect in the repeat runs; inconclusive means weak or mixed curves, or effect the other way; inactive means flat fitted curve, though single readings scatter.
Hello, when you answer, please use one of the following outcomes: active, inactive

Study these solved cases before continuing.
# Compound, Label
rows = [
    ("CCCCn1cc[n+](C)c1C", "inactive"),
    ("CCNc1nc(Cl)nc(NCC)n1", "inactive"),
    ("CCC(=O)C(CC(C)N(C)C)(c1ccccc1)c1ccccc1 (configuration not stated)", "active"),
    ("Nc1ccccc1", "inactive"),
    ("CCCCCCCCCCCC(=O)O", "inactive"),
    ("COCC(=O)N(c1c(C)cccc1C)C(C)C(=O)OC (configuration not stated)", "inactive"),
    ("CCn1cc[n+](C)c1C", "inactive"),
    ("O=C(O)C(Cl)(Cl)Cl", "inactive"),
    ("CNC", "inactive"),
    ("CCCCn1cc[n+](C)c1", "inactive"),
]

Data request: What did the test return for COc1ccc(N)cc1 ?
Data returned: inactive

* * *

Measured max response accompanies every entry in the list below.
Assay: qHTS RealTime-Glo MT Cell Viability Assay in HEK293 cells - 40 hour (AID 1224874); note: % is set by controls: 0 for no effect and ±100 for the full control effect; nearly all actives have a fitted effect of over 50% in size
Settings: RealTime-Glo luminescence; active compounds read low
Excerpt: U.S. Tox21 Program National Center for Advancing Translational Sciences [NCATS] NIH Chemical Genomics Center [NCGC] U.S. Environmental Protection Agency [EPA] National Institutes of Environmental Health Sciences [NIEHS] National Toxicology Program [NTP] U.S. Food and Drug Administration [FDA] Tox21 Assay Overview: Measure of cell viability is critical in the cell-base assay. Analysis of cell viability is necessary for the characterization of cell responses to cytotoxic drugs and environmental stress. […]
Records with an inconclusive call do not appear. The source made the active and inactive calls. Calls come from the whole dose curve; as a rule, active = well fitted cell-killing curve with a large enough effect in the repeat runs; inconclusive = weak or mixed curves, or effect the other way; inactive = flat fitted curve, though single readings scatter.

# Smiles, Observed Result
measured = [
    ("N#CS", "6.52% (inactive) [middle of 4 runs]"),
]

Data request: Entry O=C(O)C(Cl)Cl : reported max response = ?
Data returned: 5.65% (inactive) [middle of 4 runs]

Data request: Entry CCCC[N+]1(C)CCCC1 : reported max response = ?
Data returned: 0.73% (inactive) [middle of 7 runs]

Data request: Entry COc1ccccc1N : reported max response = ?
Data returned: 3.5% (inactive) [middle of 4 runs]

Data request: Entry CCCC[n+]1cccc(C)c1 : reported max response = ?
Data returned: 7.15% (inactive) [middle of 6 runs]

Data request: Entry O=C(O)COc1ccc(Cl)cc1Cl : reported max response = ?
Data returned: 5.16% (inactive) [middle of 6 runs]

Data request: Entry CCCC[n+]1ccccc1C : reported max response = ?
Data returned: 0.73% (inactive) [middle of 6 runs]

Data request: Entry O=S(=O)(O)O : reported max response = ?
Data returned: -2.52% (inactive) [middle of 6 runs]

Data request: Entry CC(=O)O : reported max response = ?
Data returned: 1.59% (inactive) [middle of 4 runs]
